# Study System: T1, human CD71 extracellular domain (CD71-ECD) (human, UniProt P02786 89-760)
# T1 construct: also called hCD71; human CD71-ECD
# T1 sequence (P02786 89-760): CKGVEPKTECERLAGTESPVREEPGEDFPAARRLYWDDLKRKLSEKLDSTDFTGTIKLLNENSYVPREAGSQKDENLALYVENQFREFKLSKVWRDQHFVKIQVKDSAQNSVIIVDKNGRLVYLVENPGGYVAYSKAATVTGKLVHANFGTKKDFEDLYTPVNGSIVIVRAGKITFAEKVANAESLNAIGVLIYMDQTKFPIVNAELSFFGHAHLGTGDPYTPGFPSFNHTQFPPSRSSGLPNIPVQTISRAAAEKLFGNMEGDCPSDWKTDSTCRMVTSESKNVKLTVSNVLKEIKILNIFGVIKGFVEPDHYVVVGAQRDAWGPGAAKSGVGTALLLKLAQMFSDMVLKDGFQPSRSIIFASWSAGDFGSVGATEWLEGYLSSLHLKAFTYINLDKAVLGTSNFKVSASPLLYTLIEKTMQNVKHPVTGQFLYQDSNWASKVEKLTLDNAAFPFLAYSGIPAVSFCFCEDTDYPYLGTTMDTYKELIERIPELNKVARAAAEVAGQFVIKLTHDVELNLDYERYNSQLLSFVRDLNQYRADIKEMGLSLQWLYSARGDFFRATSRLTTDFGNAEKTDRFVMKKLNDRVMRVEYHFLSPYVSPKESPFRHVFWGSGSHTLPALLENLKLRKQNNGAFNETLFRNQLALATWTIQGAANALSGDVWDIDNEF
# Assay Protocol: primary ELISA, RLU ratio to HSA
We begin with a simple list: items and their reported hCD71:HSA.
Provide a numeric answer; units are not to be included.

Given the binder CD71-binding FN3 domain SEQ ID NO: 263 (designed binder) MSLPAPKNLVVSRVTEDSARLSWTAPDAAFDSFEIGYFENLYLGEAIVLTVPGSERSYDLTGLKPGTEYWVQIGGVKGGNWSSPLSAIFTT , what is its reported hCD71:HSA?
208

Continuing:
Given the binder CD71-binding FN3 domain SEQ ID NO: 274 (designed binder) MSLPAPKNLVVSRVTEDSARLSWTAPDAAFDSFEIVYWEQVGVGEAIVLTVPGSERSYDLTGLKPGTEYWVQIGGVKGGGFSEPLSAIFTT , what is its reported hCD71:HSA?
296
